assay_details: Clearance in Sprague-Dawley rat at 1 mg/kg, iv
Type: ADME, organism-based
Parameters: dose 1 mg/kg, route intravenous
test_settings: Sprague-Dawley, in vivo
clearance values for the compounds below.
Write the numeric value and append its unit.

Query: Entry under review: Cn1cc(C(=O)Nc2ccc(-c3ccccc3)c(C(F)(F)F)n2)c(=O)c2cnccc21 . Reported clearance?
Response: 2.5 mL/min/kg

New cases:
Query: Entry under review: Cn1cc(C(=O)Nc2ccc(-c3ccccc3)c(C(F)(F)F)c2)c(=O)c2ccccc21 . Reported clearance?
Response: 15.5 mL/min/kg

====

assay_details: Solubility of the compound in phosphate-buffered saline at pH 7.4
Type: physicochemical
solubility values for the molecules below.
API: value field is a number in µg/mL; no unit string.

Query: Entry under review: Cn1cc(C(=O)Nc2ccc(-c3ccncc3)c(C(F)(F)F)c2)c(=O)c2ccccc21 . Reported solubility?
Response: 7.9

Query: Entry under review: Cn1nc(C(=O)Nc2ccc(-c3ccccc3)c(C(F)(F)F)c2)c(=O)c2ccccc21 . Reported solubility?
Response: 1.6

Query: Entry under review: Cn1cc(C(=O)Nc2ccc(-c3ccccn3)c(C(F)(F)F)n2)c(=O)c2cnccc21 . Reported solubility?
Response: 3
